# Tested on: HepG2
# Assay details: GSK_TCMDC: Percent inhibition of human HepG2 cell line. Test compounds present at 10uM.
# Type: functional
Experimental endpoint: Inhibition (%)
Just the number please, in %, no unit attached.

As a guide, the following entries are already answered.
>  <Compound structure>
COc1ccc2nccc([C@@H](O)CN3CCC(NCc4cc5cc(C)ccc5s4)CC3)c2c1.O=C(O)C(=O)O

>  <Inhibition (%)>
13

$$$$
>  <Compound structure>
COCCN1CCC(N(Cc2ccc(-c3ccc(OC(F)(F)F)cc3)cc2)C(=O)Cn2c(CCc3cccc(F)c3F)cc(=O)c3ccccc32)CC1.O=C(O)C(O)C(O)C(=O)O

>  <Inhibition (%)>
100

$$$$
>  <Compound structure>
O=S(=O)(Nc1ccc(CCN2CCC(N3CCCCC3)CC2)cc1)c1ccccc1C(F)(F)F

>  <Inhibition (%)>
9

$$$$

Please find the next compound below.
Could you share which Inhibition value was measured for CN1CCC(N(Cc2ccc(-c3ccc(Cl)cc3)cc2)C(=O)Cn2c(CCc3cccc(F)c3F)cc(=O)c3ccccc32)CC1.O=C(O)C(O)C(O)C(=O)O ?
93

---

# Test system: Plasmodium falciparum
# Assay details: GSK_TCMDC: Inhibition of Plasmodium falciparum 3D7 in whole red blood cells, using parasite LDH activity as an index of growth. Test compounds present at 2uM
# Type: functional
Experimental endpoint: Inhibition

As a guide, the following entries are already answered.
>  <Compound>
COc1cc(CC2c3cc(O)c(Cl)cc3CCN2C)c(OC)cc1C.Cl (stereo not given)

>  <Inhibition>
99%

$$$$
>  <Compound>
Cc1cc(Nc2cccc(Cl)c2)nc2ccc(NC(=O)c3ccc(=O)[nH]c3)cc12

>  <Inhibition>
100%

$$$$
>  <Compound>
Cc1cc(N[C@@H](Cc2ccccc2)C(=O)Nc2ccccc2)nc(Nc2ccccc2)n1.O=C(O)C(F)(F)F

>  <Inhibition>
100%

$$$$
>  <Compound>
CC(Cc1ccc(COc2ccc(CC(CO)NCCc3cccc(Cl)c3)cc2)cc1)NCCc1cccc(Cl)c1.Cl (stereo not given)

>  <Inhibition>
100%

$$$$

Please find the next compound below.
Could you share which Inhibition value was measured for Cc1cccc2nc(-c3ccc(-c4cccc(CNCCCN5CCCC5=O)c4)s3)[nH]c12.O=C(O)C(F)(F)F ?
100%

---

# System: Plasmodium falciparum
# Assay details: GSK_TCMDC: Inhibition of Plasmodium falciparum 3D7 in whole red blood cells, using parasite LDH activity as an index of growth. Test compounds present at 2uM
# Format: functional
Experimental endpoint: Inhibition (%)
Just the number please, in %, no unit attached.

>  <Molecule>
COc1ccc(CCN(C)CCOc2ccc(NC(=O)c3cccc4c(=O)c5cc(SC)ccc5[nH]c34)cc2)cc1OC

>  <Inhibition / %>
97

$$$$

Could you share which Inhibition value was measured for Cc1noc(C)c1-c1cccc(CNCc2ccc(-c3ccc(-c4nc5cc(F)ccc5[nH]4)s3)cc2)c1.O=C(O)C(F)(F)F ?
100

Could you share which Inhibition value was measured for Fc1cccc(COc2ccc(Nc3ncnc4cc(/C=C/[C@@H]5CCCN5)sc34)cc2Cl)c1 ?
100

Could you share which Inhibition value was measured for Cl.O=S(=O)(Nc1ccc2nccc(N3CCNCC3)c2c1)c1ccc(-c2ccccc2)cc1 ?
100

Could you share which Inhibition value was measured for CC(Oc1ccc(C(=O)c2ccc(F)cc2)cc1)C(=O)N1CCc2ccccc21 (stereo unspecified) ?
95

Could you share which Inhibition value was measured for COC(=O)c1cccc(CNCc2cccc(-c3cccc(-c4nc5ccccc5[nH]4)c3)c2)c1.O=C(O)C(F)(F)F ?
95

Could you share which Inhibition value was measured for Cc1cccc2nc(-c3ccc(-c4ccc(NC(=O)NCc5ccccc5)cc4)s3)[nH]c12 ?
93

Could you share which Inhibition value was measured for CC(Oc1ccc(Cl)cc1)C(=O)NCCC1CCN(CCCCCNC(=O)/C=C/c2ccc(Cl)c(Cl)c2)CC1 (stereo unspecified) ?
89

Could you share which Inhibition value was measured for CC(C)(C)c1ccc(CNC(=O)c2cc(CNC3CCC(N)CC3)ccc2O)cc1 (stereo unspecified) ?
94

Could you share which Inhibition value was measured for Cc1cnccc1/C=C/c1cccc(OCCCN2CCc3ccc(S(C)(=O)=O)cc3CC2)c1 ?
92

Could you share which Inhibition value was measured for Oc1c(C=Nn2cnnc2)sc2ccccc12 ?
93

Could you share which Inhibition value was measured for CC[C@H]1CN(Cc2ccccc2Br)CC[C@H]1CCCc1ccnc2ccc(O)cc12 ?
86

Could you share which Inhibition value was measured for O=C(NCc1cccc(F)c1)Nc1ccc(-c2cccc(-c3nc4ccccc4[nH]3)c2)cc1 ?
86

Could you share which Inhibition value was measured for CC(CC(=O)NCC1(c2ccc(F)cc2Cl)CCOCC1)C(=O)c1ccc(Cl)cc1 (stereo unspecified) ?
99

Could you share which Inhibition value was measured for O=C(NCCCCN1CCC(c2nc3ccccc3s2)CC1)c1cc2ccccc2[nH]1 ?
86

Could you share which Inhibition value was measured for CCc1nc(N)nc(N)c1-c1ccccc1 ?
92

Could you share which Inhibition value was measured for FC(F)(F)c1ccc2[nH]c(-c3ccc(-c4ccc(CN5CCN(c6cnccn6)CC5)cc4)cc3)nc2c1.O=C(O)C(F)(F)F ?
99

Could you share which Inhibition value was measured for O=C(Nc1cccc(-c2ccc(-c3nc4cc(F)ccc4[nH]3)cc2)c1)c1csnn1 ?
94

Could you share which Inhibition value was measured for CCN(CCCN1CCCCC1)c1cc(C)nc(Nc2ccc3c(c2)CCC3)n1.O=C(O)C(F)(F)F ?
100

Could you share which Inhibition value was measured for COc1ccc(CNCc2ccc(F)cc2)cc1-c1ccc(S(=O)(=O)NCCN2CCCC2)cc1.O=C(O)C(F)(F)F ?
91
